Reported log(1/ID50) values for a set of compounds
- Test system: L1210
- EXPERIMENT: Cytotoxicity against mouse L1210 cells
- MEASUREMENT CONTEXT: mouse, l1210
Please reply with the value in numeric form only.

Look over these answered cases.
COMPOUND	log(1/ID50)
O=[N+]([O-])c1ccccc1O [NITROPHENOLATE]	3.34
CC(C)Cc1ccccc1O	3.9
COc1cc(C(C)(C)C)c(O)c(C(C)(C)C)c1	3.71
CCCCCc1ccc(O)cc1	4.47
Cc1ccc(O)c(C)c1	3.04

INPUT: log(1/ID50) for COc1cc(NC(C)=O)cc(OC)c1O ?
OUTPUT: 3.99

INPUT: log(1/ID50) for CC(=O)Oc1cc(C(C)(C)C)c(O)c(C(C)(C)C)c1 ?
OUTPUT: 4.35

----------
- System: L1210
- EXPERIMENT: Cytotoxicity against mouse L1210 cells
- MEASUREMENT CONTEXT: mouse, l1210
Reported log(1/ID50) values for a set of compounds
Please reply with the value in numeric form only.

COMPOUND	log(1/ID50)
Cc1ccc(O)c(O)c1	5.03

INPUT: log(1/ID50) for COc1cc(C)cc(OC)c1O ?
OUTPUT: 2.89

INPUT: log(1/ID50) for CSc1ccccc1O ?
OUTPUT: 3.7

INPUT: log(1/ID50) for O=[N+]([O-])c1cccc(O)c1 [3-NITRO-PHENOL] ?
OUTPUT: 3.48

INPUT: log(1/ID50) for COc1cc(N)cc(OC)c1O ?
OUTPUT: 5.52

INPUT: log(1/ID50) for Cc1cccc(C(C)(C)C)c1O ?
OUTPUT: 3.73

INPUT: log(1/ID50) for N#Cc1cccc(O)c1 ?
OUTPUT: 3.11

INPUT: log(1/ID50) for COc1ccccc1O.Cl [GUAIACOL HYDROCHLORIDE] ?
OUTPUT: 3.78

INPUT: log(1/ID50) for Oc1ccccc1 [PHENOL] ?
OUTPUT: 3.27

----------
- Test system: MCF7
- EXPERIMENT: Cytotoxicity against human MCF7 cells
Reported log(1/ID50) values for a set of molecules
Please reply with the value in numeric form only.

MOLECULE	ENDPOINT LABEL	RESULT NUMBER
Oc1ccc(Oc2ccccc2)cc1	log(1/ID50)	3.99
CCc1ccc(O)cc1	log(1/ID50)	2.91
CCOc1ccc(O)cc1 [1-hydroxy-4-ethoxybenzene]	log(1/ID50)	3.7

Consider the record given below.
INPUT: log(1/ID50) for Oc1ccccc1 ?
OUTPUT: 2.56

----------
- System: L1210
- EXPERIMENT: Cytotoxicity against mouse L1210 cells
- MEASUREMENT CONTEXT: mouse, l1210
Reported log(1/ID50) values for a set of compounds
Please reply with the value in numeric form only.

Look over these answered cases.
COMPOUND STRUCTURE	log(1/ID50)
CC(C)c1ccccc1O	3.5
Oc1ccccc1C(F)(F)F	3.22
Nc1ccccc1O	5.16

INPUT: log(1/ID50) for CCc1cccc(O)c1 ?
OUTPUT: 3.71

INPUT: log(1/ID50) for Oc1ccc(F)cc1 ?
OUTPUT: 3.83

INPUT: log(1/ID50) for Oc1ccccc1Cl ?
OUTPUT: 3.22

INPUT: log(1/ID50) for CCc1ccc(O)cc1 ?
OUTPUT: 3.86

INPUT: log(1/ID50) for Oc1ccccc1F ?
OUTPUT: 3.2

INPUT: log(1/ID50) for Oc1cccc(O)c1 ?
OUTPUT: 3.46

----------
- Tested on: CCRF-CEM
- EXPERIMENT: Cytotoxicity against human CCRF-CEM cells
Reported log(1/ID50) values for a set of compounds
Please reply with the value in numeric form only.

COMPOUND	RESULT NUMBER
O=[N+]([O-])c1ccc(O)cc1	3.28

INPUT: log(1/ID50) for Cc1ccc(O)cc1 ?
OUTPUT: 3.82

INPUT: log(1/ID50) for CCCc1ccc(O)cc1 ?
OUTPUT: 3.72

INPUT: log(1/ID50) for CCCCCCOc1ccc(O)cc1 ?
OUTPUT: 5.34

INPUT: log(1/ID50) for NC(=O)c1ccc(O)cc1 ?
OUTPUT: 2.23

INPUT: log(1/ID50) for CCc1ccc(O)cc1 ?
OUTPUT: 3.79

INPUT: log(1/ID50) for Oc1ccc(I)cc1 ?
OUTPUT: 4.29

----------
- Test system: L1210
- EXPERIMENT: Cytotoxicity against mouse L1210 cells
- MEASUREMENT CONTEXT: mouse, l1210
Reported log(1/ID50) values for a set of compounds
Please reply with the value in numeric form only.

Look over these answered cases.
COMPOUND	ENDPOINT LABEL	RESULT NUMBER
Cc1cccc(C)c1O	log(1/ID50)	3.02
CCCOc1ccc(O)cc1 [1-hydroxy-4-propoxybenzene]	log(1/ID50)	4.85
Cc1ccc(O)cc1	log(1/ID50)	3.85
CCCCCCCc1ccc(O)cc1	log(1/ID50)	4.49
Oc1ccc(Oc2ccccc2)cc1	log(1/ID50)	4.97

INPUT: log(1/ID50) for CCc1ccc(O)c(C(C)(C)C)c1 ?
OUTPUT: 3.8

INPUT: log(1/ID50) for COc1cc(C(C)=O)cc(OC)c1O ?
OUTPUT: 3.06

INPUT: log(1/ID50) for CC(C)c1cccc(C(C)C)c1O ?
OUTPUT: 3.25

INPUT: log(1/ID50) for O=Cc1ccc(O)cc1 [4-HYDROXYBENZALDEHYDE] ?
OUTPUT: 3.08

INPUT: log(1/ID50) for CCCCc1ccc(O)cc1 ?
OUTPUT: 4.33

----------
- EXPERIMENT: Cytotoxicity against human CEM/VLB cells
Reported log(1/ID50) values for a set of molecules
Please reply with the value in numeric form only.

Look over these answered cases.
COMPOUND STRUCTURE	log(1/ID50)
CC(C)(c1ccc(O)cc1)c1ccc(O)cc1	3.96
Cc1ccc(O)cc1	4.05

Consider the record given below.
INPUT: log(1/ID50) for Oc1ccc(Cl)cc1 ?
OUTPUT: 3.89

----------
- System: CCRF-CEM
- EXPERIMENT: Cytotoxicity against human CCRF-CEM cells
ENDPOINT LABEL: log(1/ID50)
Please reply with the value in numeric form only.

COMPOUND	TARGET DESC	log(1/ID50)
Cl.Nc1ccc(O)cc1 [4-AMINOPHENOL HYDROCHLORIDE]	CCRF-CEM	4.61
NS(=O)(=O)c1ccc(O)cc1	CCRF-CEM	2.31
CC(C)(c1ccc(O)cc1)c1ccc(O)cc1	CCRF-CEM	4.18
COc1ccc(O)cc1	CCRF-CEM	4.41
Oc1ccc(Cl)cc1	CCRF-CEM	3.45

Consider the record given below.
INPUT: log(1/ID50) for Oc1ccccc1 ?
OUTPUT: 3.27

----------
Reported log(1/ID50) values for a set of compounds
- Test system: L1210
- EXPERIMENT: Cytotoxicity against mouse L1210 cells
- MEASUREMENT CONTEXT: mouse, l1210
Please reply with the value in numeric form only.

COMPOUND	RESULT NUMBER
COc1cc(C=O)cc(OC)c1O [SYRINGALDEHYDE]	3.1

INPUT: log(1/ID50) for CCCCCCCCCc1ccc(O)cc1 [4-NONYLPHENOL] ?
OUTPUT: 4.75

INPUT: log(1/ID50) for Cc1cc([N+](=O)[O-])ccc1O ?
OUTPUT: 3.49

INPUT: log(1/ID50) for CCCCCCOc1ccc(O)cc1 ?
OUTPUT: 5.5

INPUT: log(1/ID50) for CC(=O)c1cc(C(C)(C)C)c(O)c(C(C)(C)C)c1 ?
OUTPUT: 3.94

INPUT: log(1/ID50) for CCc1cccc(CC)c1O ?
OUTPUT: 3.26

INPUT: log(1/ID50) for Cl.Nc1cccc(O)c1 [3-AMINOPHENOL HYDROCHLORIDE] ?
OUTPUT: 4.11

INPUT: log(1/ID50) for CC(C)(C)c1cc(CO)cc(C(C)(C)C)c1O ?
OUTPUT: 3.88

INPUT: log(1/ID50) for Cc1cc(C)c(O)c(C)c1 ?
OUTPUT: 3.2

INPUT: log(1/ID50) for NC(=O)Nc1ccccc1O ?
OUTPUT: 3.5

INPUT: log(1/ID50) for CC(C)(C)c1cccc(O)c1 ?
OUTPUT: 3.88

INPUT: log(1/ID50) for CC(C)(C)c1cc(C=O)cc(C(C)(C)C)c1O ?
OUTPUT: 4.06

INPUT: log(1/ID50) for Oc1cccc(F)c1 ?
OUTPUT: 3.46

INPUT: log(1/ID50) for CN(C)c1cccc(O)c1 ?
OUTPUT: 4.11

INPUT: log(1/ID50) for Oc1cccc(Br)c1 ?
OUTPUT: 3.82
